Kon by entry:
targetDesc: T1, rhesus CD45 ectodomain (Macaca mulatta, UniProt A0A1D5R142)
T1 construct: purified human, rhesus or cynomolgus CD45 ectodomain
T1 sequence (A0A1D5R142 26-581): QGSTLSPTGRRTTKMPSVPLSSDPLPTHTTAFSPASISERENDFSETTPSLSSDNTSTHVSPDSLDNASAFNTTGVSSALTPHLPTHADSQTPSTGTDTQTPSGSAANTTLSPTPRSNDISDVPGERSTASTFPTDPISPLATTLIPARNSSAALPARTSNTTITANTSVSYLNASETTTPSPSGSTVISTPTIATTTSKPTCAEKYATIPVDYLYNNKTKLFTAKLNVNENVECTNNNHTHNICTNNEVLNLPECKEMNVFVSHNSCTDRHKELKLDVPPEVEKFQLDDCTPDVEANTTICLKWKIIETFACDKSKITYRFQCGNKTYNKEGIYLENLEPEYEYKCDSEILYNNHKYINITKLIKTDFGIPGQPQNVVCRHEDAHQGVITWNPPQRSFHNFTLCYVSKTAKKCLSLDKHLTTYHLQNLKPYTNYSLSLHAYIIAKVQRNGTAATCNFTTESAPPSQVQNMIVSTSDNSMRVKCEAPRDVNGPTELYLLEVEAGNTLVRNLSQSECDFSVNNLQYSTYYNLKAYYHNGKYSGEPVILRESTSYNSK
assayMethodText: Biolayer interferometry (BLI, Octet) binding of immobilized IgG to purified CD45 ectodomain
cond: Table 2, Rhesus CD45
Only the number, expressed in M⁻¹ s⁻¹, is required.

Examples from the recorded data:
INSERT INTO assay_data (molecule, valueunit, valuemeasured) VALUES
  ('Ab3: affinity matured human anti-CD45 IgG derived from Ab1; VH SEQ ID NO:21, VL SEQ ID NO:25 (antibody, V domains shown) VH: QVQLVESGGGLVKPGGSLRLSCAASGFTFGGYSMNWVRQAPGKGLEWVSYISISGATITYADSVKGRFTISRDNAKNSLYLQMNSLRAEDTAVYYCARGGQYYYDSSDYGEVAFDIWGQGTMVTVSS VL: DIVMTQSPLSLPVTPGEPASISCRSSQSLVSNGYNYLDWYLQKPGQSPQLLIYFGSSRASGVPDRFSGSGSGTDFTLKISRVEAEDVGVYYCMQRRRTPPFTFGGGTKVEIK', 'M⁻¹ s⁻¹', 135000),
  ('Ab2: affinity matured human anti-CD45 IgG derived from Ab1; VH SEQ ID NO:11, VL SEQ ID NO:15 (antibody, V domains shown) VH: EVQLVESGGGLVQPGGSLRLSCAASGFTFEAYSMNWVRQAPGKGLEWVSYISLSGATIHYADSVKGRFTISRDNAKNSLYLQMNSLRAEDTAVYYCARGGQYYYDSSDYGEVAFDIWGQGTMVTVSS VL: DIVMTQSPLSLPVTPGEPASISCRSSQSLVSNGYNYLDWYLQKPGQSPQLLIYFGSSRASGVPDRFSGSGSGTDFTLKISRVEAEDVGVYYCMQRRRTPWSFGGGTKVEIK', 'M⁻¹ s⁻¹', 135000);

Attention now turns to another entry.
Data request: Query Kon for Ab6: affinity matured human anti-CD45 IgG derived from Ab1; VH SEQ ID NO:51, VL SEQ ID NO:55 (antibody, V domains shown) VH: EVQLVESGGGLVQPGGSLRLSCAASGFTFEAYSMNWVRQAPGKGLEWVSYISLSGATIHYADSVKGRFTISRDNAKNSLYLQMNSLRAEDTAVYYCARGGQYYYTSSDYGEVAFDIWGQGTLVTVSS VL: DIVLTQSPLSLPVTPGEPASISCRSSQSLVSSGYNYLDWYLQKPGQSPQLLIYFGSSRASGVPDRFSGSGSGTDFTLKISRVEAEDVGVYYCMQRRRTPWSFGGGTKVEIK
Data returned: 122000
